# SYSTEM: T1, PXL1^LRR (extracellular LRR domain of PXY-LIKE1, residues 1-639, 6xHis) (Arabidopsis, UniProt Q9FRS6 24-639)
# T1 construct: signal peptide in the construct; PXL1 (PXY-LIKE1), Arabidopsis, AT1G08590, LRR domains, residues 1-639; also called PXL1 ectodomain; PXL1^LRR-6×His; source: High Five cells, purified (Ni-NTA, size-exclusion chromatography)
# T1 sequence (looked up): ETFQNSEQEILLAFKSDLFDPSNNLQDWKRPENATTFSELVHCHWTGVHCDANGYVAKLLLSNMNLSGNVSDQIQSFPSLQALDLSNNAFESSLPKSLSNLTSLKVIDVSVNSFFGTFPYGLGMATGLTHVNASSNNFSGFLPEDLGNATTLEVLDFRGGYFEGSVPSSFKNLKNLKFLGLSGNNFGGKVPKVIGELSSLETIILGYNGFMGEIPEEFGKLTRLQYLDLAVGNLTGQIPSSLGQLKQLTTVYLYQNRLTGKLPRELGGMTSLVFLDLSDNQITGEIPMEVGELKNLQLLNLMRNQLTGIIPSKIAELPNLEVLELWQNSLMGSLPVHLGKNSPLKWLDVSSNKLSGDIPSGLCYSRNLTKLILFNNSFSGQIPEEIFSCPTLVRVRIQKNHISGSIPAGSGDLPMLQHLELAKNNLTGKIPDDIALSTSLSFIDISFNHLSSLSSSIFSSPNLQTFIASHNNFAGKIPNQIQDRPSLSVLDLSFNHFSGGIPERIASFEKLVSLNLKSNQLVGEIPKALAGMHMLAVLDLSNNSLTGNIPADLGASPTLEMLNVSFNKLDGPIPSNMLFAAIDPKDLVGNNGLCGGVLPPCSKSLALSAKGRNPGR
# TEST: ITC; ITC200; 1 mM CLE19 titrated into 0.1 mM PXL1^LRR in the cell, 20 injections; 10 mM Bis-Tris pH 6.0, 100 mM NaCl; 25 °C
# ASSAY SETUP: both partners purified
REPORTED METRIC: Kd

Quick note, Kd for RVIPTGPNPLHN [CLAVATA3/EMBRYO SURROUNDING REGION-RELATED 19 (CLE19) peptide] landed at ~346 nM
